tested on: OVCAR-5 ovarian; experiment: NCI-60 one-dose screen, 48 h (100 = growth as untreated, 0 = no growth, -100 = all killed); conditions: 10 µM unless noted
Compounds without any hit were thinned out: in the full panel of roughly 83,000, 20% have a hit. Active and inactive are the calls of the source. Rule for the calls: active = growth percent below 10; inactive = the rest.
RECORDED ENDPOINT: growth

CCOC(=O)c1c(C)nc2c(c1N)/C(=C/c1cccs1)C(=O)N2Cc1ccccc1; 119% (inactive)
Cc1nc2sc(C(=O)Nc3cccc(Cl)c3C)c(N)c2cc1C(C)O (stereo not drawn); 55.8% (inactive)
CC(=O)c1ccc(NC(=O)CSc2nnc(-c3cc(-c4ccc(Cl)cc4)nc4ccccc34)o2)cc1; 96.7% (inactive)
C=C1C(=O)O[C@H]2[C@H]1CC/C(COC(=O)c1cccnc1)=C\CC[C@@]1(C)O[C@@H]21; 73.8% (inactive)
CC1CCCN(CCCCCOc2ccc3oc4ccccc4c(=O)c3c2)C1 (stereo not drawn); 79.4% (inactive)
COc1ccc2nc(-c3ccc(Cl)cc3)cc(-c3nnc(SCC(=O)Nc4ccc(/C(C)=N\O)cc4)o3)c2c1; 81.1% (inactive)
CCOC(=O)c1c(C)nc2c(c1N)CC(=O)N2CCc1ccccc1; 53.3% (inactive)
CCOC(=O)c1cnn(-c2nc(-c3ccc(F)cc3)c(C#N)c(N3CCOCC3)n2)c1N; 95% (inactive)
CCCCc1n(Cc2ccc3ccccc3n2)cc[n+]1Cc1ccc2ccccc2c1; 24% (inactive)
Cc1cnc(SCc2ccc(Cl)cc2)[nH]c1=S; 97.5% (inactive)
O=C1CCc2ccccc2N1; 103% (inactive)
COc1ccc(/C=C(/C(=O)N2CCN(Cc3ccccc3)CC2)c2cc(OC)c(OC)c(OC)c2)cc1O; 99.9% (inactive)
Nc1n[nH]c2cccc(C#Cc3cccc(NC(=O)c4cc(N5CCOCC5)cc(C(F)(F)F)c4)c3)c12; 42.4% (inactive)
COc1cc(N=Nc2cc(S(=O)(=O)O)cc3cc(S(=O)(=O)O)cc(O)c23)c(C)cc1N=Nc1c(S(=O)(=O)O)cc2cc(Nc3ccccc3)ccc2c1O; 111% (inactive)
C[C@H]1[C@H](C)CC[C@]2(C(=O)OCCCC[P+](c3ccccc3)(c3ccccc3)c3ccccc3)CC[C@]3(C)C(=CC[C@@H]4[C@@]5(C)CC[C@H](OC(=O)C(Cl)Cl)C(C)(C)[C@@H]5CC[C@]43C)[C@H]12; -52.2% (active)
N#Cc1nc(-c2ccccc2)oc1S(=O)(=O)NCC(c1ccc(Cl)cc1)N1CCCCC1 (stereo not drawn); 102% (inactive)
COc1cc(NC(=O)Nc2cnc(Nc3ccc(N4CCOCC4)cc3)nc2Oc2ccc(F)cc2)cc(OC)c1; 113% (inactive)
Cc1cc(C)n(-c2nc(-c3cccs3)c(C#N)c(=O)[nH]2)n1; 105% (inactive)

----------
system: MDA-MB-231 breast; assay: NCI-60 one-dose screen, 48 h (100 = growth as untreated, 0 = no growth, -100 = all killed); settings: 10 µM unless noted
Compounds without any hit were thinned out: in the full panel of roughly 83,000, 20% have a hit.
I would appreciate it if you labelled entries Satisfied when growth is 70% or higher, otherwise Not satisfied.

Cc1nc2sc(C(=O)Nc3cccc4ccccc34)c(N)c2cc1C(C)O (centres undefined); Not satisfied
COC(=O)c1nc(-c2ccccc2)oc1S(=O)(=O)n1nc(C)cc1N; Satisfied
Nc1ccccc1NS(=O)(=O)c1ccc(Cl)cc1; Satisfied
CCOc1ccccc1C(=O)/C=C/c1cc2ccccc2[nH]c1=O; Not satisfied
CC(=O)Oc1c2c(nc3c1c1ccccc1n3Cc1ccccc1)-c1ccccc1C2; Satisfied
Nn1c(SCC(=O)Nc2ccc(Cl)cc2)nnc1-c1cc(F)c(Cl)cc1Cl; Satisfied
O=S(=O)(O)c1ccc(N=NSc2ccc3ccccc3c2)cc1; Satisfied
c1ccc2c3c([nH]c2c1)C(c1ccc(C2NCCc4c2[nH]c2ccccc42)cc1)NCC3 (centres undefined); Not satisfied
CC(C)NS(=O)(=O)c1cccc(-c2ccc3c4c(n(CCCN(C)C)c(=O)c3c2)-c2ccccc2C4=O)c1; Satisfied
COc1cc(/C=C/C(=O)/C=C/c2cc3ccc(Cl)cc3n(Cc3ccccc3)c2=O)ccc1O; Not satisfied
O=C(Nc1ccccc1)NS(=O)(=O)c1c[nH]c(=S)[nH]c1=O; Satisfied
CCN1CCN(Cc2ccc(NC(=O)c3cccc(C#Cc4cccc5[nH]nc(N)c45)c3)cc2C(F)(F)F)CC1; Not satisfied
Cn1cc(-c2ccc3c(c2)ncn3-c2ccc(CC(=O)Nc3cc(C(C)(C)C)on3)cc2)cn1; Not satisfied
COc1ccc(-c2[nH]c3ccccc3c2C=C(C#N)C#N)cc1; Not satisfied
CCN1CCC[C@H]1c1cc(O)c2c(c1OC)C[C@H]1C[C@H]3[C@H](N)C(=O)C(C(N)=O)=C(O)[C@@]3(O)C(=O)C1=C2O; Not satisfied
C=C1C(=O)O[C@H]2[C@H]1CC/C(COC(=O)c1c[nH]c3ccccc13)=C\CC[C@@]1(C)O[C@@H]21; Not satisfied

----------
Tested on: SK-MEL-5 melanoma
Test: NCI-60 one-dose screen, 48 h (100 = growth as untreated, 0 = no growth, -100 = all killed)
Conditions: 10 µM unless noted
Protocol: Growth inhibition of the SK-MEL-5 human tumor cell line is measured as a screen for anti-cancer activity. Cells are grown in 96 well plates and exposed to the test compound for 48 hours. Compounds are tested at a single concentration, which is 10^-5 M for most compounds. The reported endpoint is percent growth (GI% or GIPRCNT), where numbers from 0 - 100% represent growth inhibition, and numbers from -100% - 0 represent cell death. For example, a value of 40 represents 60% growth inhibition. […]
This is part of a sample that, as a whole, favours compounds with a hit. Of some 83,000 tested, about 20% had one in any assay. Activity calls are given as the source filed them. How the source made its calls: active means growth percent below 10; inactive means the rest.
RECORDED ENDPOINT: growth

N#Cc1c(-c2ccc(F)cc2)nc(N=Nc2c(O)[nH]c3ccc(Cl)cc23)nc1N1CCOCC1; 29.6% (inactive)
Cc1cc(NC(=O)CNc2nc(Oc3ccc(F)cc3)nc(-c3ccc(F)cc3)n2)ccc1Cl; 99.1% (inactive)
COc1cc(C(=O)N2CCN(c3ccccc3OC)CC2)c(NC(=O)c2cnccn2)cc1OCc1ccccc1; 78.4% (inactive)
C#C[C@@]1(O)[C@@H](CO)O[C@@H](n2cnc3c(-c4ccccc4)ncnc32)[C@@H]1O; 104% (inactive)
CCOC(=O)c1c(C)nc2c(c1N)/C(=C/c1cccs1)C(=O)N2Cc1ccccc1; 83.8% (inactive)
O=[N+]([O-])c1ccc(N=Nc2c(O)c(N=Nc3cc([N+](=O)[O-])cc([N+](=O)[O-])c3O)cc(N=Nc3cc(S(=O)(=O)O)cc4cc(S(=O)(=O)O)cc(O)c34)c2O)cc1; 108% (inactive)
COc1ccc(/C=C(/C(=O)N2CCN(Cc3ccccc3)CC2)c2cc(OC)c(OC)c(OC)c2)cc1O; 33.3% (inactive)
CC(=O)Nc1ccc2c(c1)Cc1cc(F)ccc1-2; 102% (inactive)
NC(=O)CN1C(=O)c2ccccc2C1=O; 99.2% (inactive)

----------
System: CCRF-CEM leukemia
Experiment: NCI-60 one-dose screen, 48 h (100 = growth as untreated, 0 = no growth, -100 = all killed)
Conditions: 10 µM unless noted
Procedure: Growth inhibition of the CCRF-CEM human tumor cell line is measured as a screen for anti-cancer activity. Cells are grown in 96 well plates and exposed to the test compound for 48 hours. Compounds are tested at a single concentration, which is 10^-5 M for most compounds. The reported endpoint is percent growth (GI% or GIPRCNT), where numbers from 0 - 100% represent growth inhibition, and numbers from -100% - 0 represent cell death. For example, a value of 40 represents 60% growth inhibition. […]
Compounds without any hit were thinned out: in the full panel of roughly 83,000, 20% have a hit. Activity calls are given as the source filed them. How the source made its calls: active means growth percent below 10; inactive means the rest.
growth values for the compounds below.
RECORDED ENDPOINT: growth

Oc1c(CCl)cc(Cl)cc1Cc1cc(Cl)cc(Cc2cc(Cl)cc(CCl)c2O)c1O; 13.5% (inactive)
C[C@@H]1C(=O)[C@@H]2C[C@@H](O)[C@@H](O)C[C@]2(C)[C@H]2CC[C@@]3(C)C(=C12)CC[C@@H]3[C@@](C)(O)[C@H](O)CCC(C)(C)O; 89.5% (inactive)
O=c1[nH]c(-c2cccc(F)c2)cc2cc(F)ccc12; 13.6% (inactive)
CCCCn1c(=O)c(/C=C/C(=O)/C=C/c2ccc(O)c(OC)c2)cc2ccc(Cl)cc21; 2.91% (active)
C=C1C(=O)O[C@H]2[C@H]1CC/C(COC(=O)NCC(=O)Nc1ccc(OC)c(C(N)=O)c1O)=C\CC[C@@]1(C)O[C@@H]21; -15.8% (active)
C/C(=C\c1cnc(C)s1)[C@@H]1C[C@@H]2O[C@@H]2CCC[C@H](C)[C@H](O)[C@@H](C)C(=O)C(C)(C)[C@@H](O)CC(=O)O1; 30.7% (inactive)
COc1ccc2nc(-c3ccc(Cl)cc3)cc(-c3nnc(SC/C(=N/O)c4ccccc4)o3)c2c1; 54.1% (inactive)
N#Cc1ccc(Oc2ccc3ccc(=O)oc3c2)cc1; 101% (inactive)
